settings: pH 2.7
Marks after values point to notes of the source that are not given here.
Measured attribute: Log P

{"columns": ["Compound", "Measured attribute", "Recorded measurement"],
 "data": [
  ["C#CC(NC(=C(C#N)C(=O)OCC)c1cccnc1Cl)C(C)C (stereo not drawn) [Compound 1521]", "Log P", "3.37^[a]"],
  ["CCOC(=O)C(C#N)=C(NC(C)c1nc(C)c(C)s1)c1ccsc1I (racemic) [Compound 157]", "Log P", "3.75^[a]"],
  ["CCOC(=O)C(C#N)=C(NC1C2CCCCC21)c1cccnc1Cl (stereo not drawn) [Compound 1083]", "Log P", "3.73^[a]"],
  ["CCOC(=O)C(C#N)=C(NC(C)C1CC1)c1ccncc1Cl (racemic) [Compound 898]", "Log P", "3.03^[a]"],
  ["CCOC(=O)C(C#N)=C(NCc1ncc(C)s1)c1sccc1Br [Compound 220]", "Log P", "3.04^[a]"],
  ["COC(=O)C(C#N)=C(NC(C)c1ccc(OC)c(OC)c1)c1cccnc1Cl (stereo not drawn) [Compound 400]", "Log P", "2.34^[a]"],
  ["CCOC(=O)C(C#N)=C(NC(C)c1cccc(OC)c1)c1cn(C)nc1C(F)F (stereo not drawn) [Compound 1225]", "Log P", "3.21^[a]"],
  ["CCOC(=O)C(C#N)=C(NC(C)CCCC(C)C)c1sc(C)nc1C(F)(F)F (stereo not drawn) [Compound 929]", "Log P", "5.14^[a]"],
  ["C=Cc1nn(C)cc1C(NC(C(=O)OC)C(C)C)=C(C#N)C(=O)OCC (stereo not drawn) [Compound 719]", "Log P", "2.94^[a]"]
]}

* * *

details: pH 2.7
Marks after values point to notes of the source that are not given here.

{"columns": ["Compound", "Log P"],
 "data": [
  ["CC#CC(C)(C)NC(=C(C#N)C(=O)OC)c1cccnc1Cl", "2.57^[a]"],
  ["CCOC(=O)C(C#N)=C(NC(C)C(F)(F)F)c1cn(C)nc1OC (racemic)", "2.82^[a]"],
  ["CCOC(=O)C(C#N)=C(NC(C)(C)C(C)(C)C)c1sccc1Br", "4.67^[a]"],
  ["CCOCC(COCC)NC(=C(C#N)C(=O)OCC)c1cccnc1Cl", "3.33^[a]"],
  ["COC(=O)C(C#N)=C(NC(C)CN)c1cn(C)nc1C(F)F (racemic)", "0.58^[a]"],
  ["CCOC(=O)C(C#N)=C(NC(C)CC(=O)Nc1ccccc1C)c1cn(C)nc1C(F)F (stereo not drawn)", "2.68^[a]"],
  ["CCOC(=O)C(C#N)=C(NC1CCC1)c1cn(C)nc1C(Cl)Cl", "3.09^[a]"],
  ["COC(=O)C(C#N)=C(NC(C)C(C)C)c1cccnc1Cl (stereo not drawn)", 2.76],
  ["CCCC(C#N)NC(=C(C#N)C(=O)OCC)c1cn(C)nc1C(F)F (racemic)", "2.77^[a]"],
  ["CCOC(=O)C(C#N)=C(NC(C)c1ccccc1C)c1cn(C)nc1C(F)F (stereo not drawn)", "3.46^[a]"],
  ["CCOC(=O)C(C#N)=C(NC1CSC1)c1cccnc1Cl", "2.64^[a]"],
  ["CCOC(=O)C(C#N)=C(NC(C)(C)CSC)c1sccc1C(F)(F)F", "3.8^[a]"],
  ["CC(NC(=C(C#N)C(=O)N1CCCO1)c1cccnc1Cl)c1nccs1 (stereo not drawn)", "1.9^[a]"],
  ["CCOC(=O)C(C#N)=C(NC(C(=O)OC)C(C)C)c1cn(C)nc1C(F)F (racemic) [Compound 674]", "2.84^[a]"],
  ["CCC(NC(=C(C#N)C(=O)OC)c1cccnc1Cl)c1cccc(Cl)c1 (stereo not drawn)", "3.58^[a]"],
  ["CCOC(=O)C(C#N)=C(NCc1nccs1)c1cccnc1Cl", "2.07^[a]"],
  ["CCOC(=O)C(C#N)=C(NC1(c2c(F)cccc2F)CC1)c1cn(C)nc1OC", "3.02^[a]"],
  ["CCOC(=O)C(C#N)=C(NC(C)c1nc(C)cs1)c1sc(C)nc1C(F)(F)F (stereo not drawn)", "3.42^[a]"]
]}
